biological target: Syk (Homo sapiens, UniProt P43405); assay: Syk enzyme inhibition (FRET); type: biochemical; settings: Table 4a1
Returns: string. Value is 1.0 if measured IC50 is below 100 nM, and 0.0 if it is greater than or equal to it.

Here's what some known entries look like.
- SMI: "COc1ccc(-n2nc(C(C)(C)C)cc2NC(=O)Nc2ccc(Oc3cc(Nc4cc(OC)cc(C(=O)NCCN5CCOCC5)c4)ncn3)c(C)c2C)cc1"
  CLASS_ASSIGNMENT: 0.0
- SMI: "COc1ccc(-n2nc(C(C)C)cc2NC(=O)Nc2ccc(Oc3ccnc(Nc4cc(C(=O)NCCO)ccc4OC)n3)c3ccccc23)cc1"
  CLASS_ASSIGNMENT: 1.0
- SMI: "COc1ccc(Nc2nccc(Oc3ccc(NC(=O)Nc4cc(C(C)C)nn4-c4ccc(C)cc4)c4ccccc34)n2)cc1C(=O)NCCN1CCOCC1"
  CLASS_ASSIGNMENT: 1.0
- SMI: "Cc1ccc(-n2nc(C(C)(C)C)cc2NC(=O)Nc2ccc(Oc3ccnc(Nc4cccc(C(=O)N(C)C)c4)n3)c3ccccc23)cc1"
  CLASS_ASSIGNMENT: 1.0
- SMI: "COc1cc(C(=O)NCCN2CCOCC2)ccc1Nc1nccc(Oc2ccc(NC(=O)Nc3cc(C(C)C)nn3-c3ccc(C)cc3)c3ccccc23)n1"
  CLASS_ASSIGNMENT: 0.0
- SMI: "COc1cc(Nc2cc(Oc3ccc(NC(=O)Nc4cc(C(C)(C)C)nn4-c4ccc(C)cc4)c4ccccc34)ncn2)cc(C(=O)NCCN2CCOCC2)c1"
  CLASS_ASSIGNMENT: 0.0

# input for lookup
Q) Please indicate whether the reported IC50 of "COc1ccc(C(=O)NCCN(C)C)cc1Nc1nccc(Oc2ccc(NC(=O)Nc3cc(C(C)C)nn3-c3ccc(C)cc3)c3ccccc23)n1" is strictly below 100 nM.
A) 1.0
